- Tested on: NCI/ADR-RES ovarian
- assay.name: NCI-60 one-dose screen, 48 h (100 = growth as untreated, 0 = no growth, -100 = all killed)
- measurement.parameters: 10 µM unless noted
This is part of a sample that, as a whole, favours compounds with a hit. Of some 83,000 tested, about 20% had one in any assay.
growth under 70% gets 1, anything at or over 70% gets 0.

Please review the entries below; each comes with its answer.
>>> class_label("C[CH2][Sn]([CH2]C)([CH2]C)[NH]S(=O)(=O)c1ccc(C)cc1")
0
>>> class_label("CC[CH2][Pb]([CH2]CC)([CH2]CC)[O]C(=O)C(F)(F)F")
1
>>> class_label("Oc1c(Br)cc(Br)cc1Br.[Cu+2]")
0
>>> class_label("O=CN1N=C(c2ccc3c(c2)OCO3)CC1c1sc(N(CCCl)CCCl)nc1Cl (stereo not drawn)")
0
>>> class_label("CNC(=O)Oc1cccc(OC)c1")
0

Problem: Quick check: does `O=C(O)c1nn(Cc2ccc(Cl)cc2)c2ccccc12` have growth under 70%?
Result: 0

Problem: And for `Cc1cc(CCl)c(C)cc1CCl` ?
Result: 1

Problem: // query: `COc1cc(/C=C\c2cc(OC)c(OC)c(OC)c2)cc(N/C=C\C(=O)c2ccc(OC(F)(F)F)cc2)c1OC`
Result: 1
